biological target: PI3K (Homo sapiens); construct: PI3 Kinase α IC50; other: PI3 Kinase α; other: PI3 Kinase α isoform, fluorescence polarization; assay: Fluorescence polarization assay for PI3K; type: biochemical; conditions: PI3 Kinase α isoform, fluorescence polarization; read-out: PI3 Kinase α IC50
Sequence (P42336 whole entry, canonical isoform): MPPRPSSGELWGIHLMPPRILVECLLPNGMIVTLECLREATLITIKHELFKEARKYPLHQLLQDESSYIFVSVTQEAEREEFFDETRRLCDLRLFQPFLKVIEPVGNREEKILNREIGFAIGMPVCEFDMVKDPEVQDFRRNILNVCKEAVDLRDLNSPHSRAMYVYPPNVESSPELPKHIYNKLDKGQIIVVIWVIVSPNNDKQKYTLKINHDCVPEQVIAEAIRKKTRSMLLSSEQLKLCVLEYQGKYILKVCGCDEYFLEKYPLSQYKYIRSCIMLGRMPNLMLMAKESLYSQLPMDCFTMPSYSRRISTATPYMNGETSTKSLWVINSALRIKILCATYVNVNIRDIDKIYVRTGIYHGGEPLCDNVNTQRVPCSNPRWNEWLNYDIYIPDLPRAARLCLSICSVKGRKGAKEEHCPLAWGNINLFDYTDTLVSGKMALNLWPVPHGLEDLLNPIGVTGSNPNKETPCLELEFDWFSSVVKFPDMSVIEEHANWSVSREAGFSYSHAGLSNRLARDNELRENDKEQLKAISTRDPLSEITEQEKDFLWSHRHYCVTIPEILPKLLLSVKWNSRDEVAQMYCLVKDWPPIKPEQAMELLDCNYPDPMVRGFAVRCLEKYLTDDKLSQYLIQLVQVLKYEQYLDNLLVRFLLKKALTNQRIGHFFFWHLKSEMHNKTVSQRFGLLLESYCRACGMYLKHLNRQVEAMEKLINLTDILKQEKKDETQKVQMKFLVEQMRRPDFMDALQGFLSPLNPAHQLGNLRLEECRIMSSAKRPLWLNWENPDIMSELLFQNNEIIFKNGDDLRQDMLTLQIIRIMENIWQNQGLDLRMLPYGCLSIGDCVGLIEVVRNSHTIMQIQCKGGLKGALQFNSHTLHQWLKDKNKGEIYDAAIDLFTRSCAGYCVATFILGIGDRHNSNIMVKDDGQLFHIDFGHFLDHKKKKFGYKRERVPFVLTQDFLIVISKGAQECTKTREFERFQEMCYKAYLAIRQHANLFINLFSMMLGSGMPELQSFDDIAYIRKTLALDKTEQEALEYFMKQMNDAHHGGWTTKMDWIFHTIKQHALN
Doc: threshold 800 nM (exclusive). Items with IC50 beneath it return class 1; others return class 0.

compound: CC(=O)N1CC2CN(c3nc(-c4ccc(NC(=O)Nc5ccncc5)cc4)nc4c3cnn4CC(F)(F)F)CC(C1)O2
group.label: class 0
--
compound: CNC(=O)Nc1ccc(-c2nc(N3CC4CCC(C3)O4)c3cnn(C4CCC(NN(C)C)CC4)c3n2)cc1 (centres unmarked)
group.label: class 1
--
compound: CS(=O)(=O)N1CCN(Cc2cc3nc(-c4ccc(NC(=O)Nc5cccnc5)cc4)nc(N4CC5CCC(C4)O5)c3s2)CC1
group.label: class 1
--
compound: CN1CCN(C2CCC(n3ncc4c(N5CC6CCC(C5)O6)nc(-c5ccc(NC(=O)NCCF)cc5)nc43)CC2)CC1 (centres unmarked)
group.label: class 0
--
compound: Oc1cccc(-c2nc(N3C[C@@H]4C[C@H]3CO4)c3cnn(-c4ccccc4)c3n2)c1
group.label: class 0
--
compound: CCn1nc(CN2CCN(C)CC2)c2c(N3CC4CCC(C3)O4)nc(-c3ccc(NC(=O)NC)cc3)nc21
group.label: class 0
--
compound: O=C(Nc1ccc(-c2nc(N3C[C@H]4C[C@@H]3CO4)c3cnn(CC(F)(F)F)c3n2)cc1)OCCO
group.label: class 0
--
compound: O=C(Nc1ccc(-c2nc(N3C[C@H]4C[C@@H]3CO4)c3cnn(CC(F)(F)F)c3n2)cc1)NC1CC1
group.label: class 0
--
compound: O=C(NCCO)Nc1ccc(-c2nc(N3CC4CCC(C3)O4)c3sccc3n2)cc1
group.label: class 1
--
compound: COC(=O)N1CCC(n2ncc3c(N4C5CCC4COC5)nc(-c4ccc(NC(=O)Nc5ccc(OCCN(C)C)cc5)cc4)nc32)CC1
group.label: class 0
--
compound: CN1CCN(c2ccc(NC(=O)Nc3ccc(-c4nc(N5CC6CCC(C5)O6)c5cnn(C6CCC(=O)CC6)c5n4)cc3)cc2)CC1
group.label: class 1
--
compound: O=C1CCC(n2ncc3c(N4CC5CCC(C4)O5)nc(-c4ccc(NC(=O)NC5CC5)cc4)nc32)CC1
group.label: class 0
--
compound: O=C(NCCF)Nc1ccc(-c2nc(N3CC4CCC(C3)O4)c3sccc3n2)cc1
group.label: class 0
--
compound: CN1CCN(c2ccc(NC(=O)Nc3ccc(-c4nc(N5C[C@H]6C[C@@H]5CO6)c5cnn(CC(F)(F)F)c5n4)cc3)cc2)CC1
group.label: class 0
--
compound: O=C(Nc1ccc(-c2nc(N3CC4CCC(C3)O4)c3cnn(C4CCC(N5CCCC5)CC4)c3n2)cc1)Nc1cccnc1 (centres unmarked)
group.label: class 1
--
compound: CNC(=O)Nc1ccc(-c2nc(N3CC4CCC(C3)O4)c3cnn(C4CCC5(CCCO5)CC4)c3n2)cc1 (single isomer, unassigned)
group.label: class 0
--
compound: CNC(=O)Nc1ccc(-c2nc(N3C[C@H]4C[C@@H]3CO4)c3cnn(CC(F)(F)F)c3n2)cc1
group.label: class 0
--
compound: Oc1ccc(Nc2nc(N3CC4CCC(C3)O4)c3sccc3n2)cc1
group.label: class 0
--
compound: COC(=O)N1CCC(n2ncc3c(N4C5CCC4COC5)nc(-c4ccc(NC(=O)Nc5ccncc5)cc4)nc32)CC1
group.label: class 0

Data provenance is patent US8129371B2.
